Recorded normalized growth values for a group of compounds are listed next.
PROTOCOL: chemical genetic growth profiling, strain panel (AID 1159580);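 further: tested at 20 µM; growth read once vehicle control cultures reached saturation at 30 °C; 1 = growth at the plate median or of vehicle wells; lower values mean less growth of the strain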
EXPERIMENTAL SETUP: S. cerevisiae deletion strains, growth OD, locus YOR184W, strain ser1, active compounds read low
Hit rate of the full screen: of about 5,500 compounds, about 2,000 (36%) were called active. Inconclusive results (about 18%) are left out. This is one part of the list.
Just the number, please, no unit after it.

Below are worked cases with known answers.
- COMPOUND: "O=C(O)c1cccnc1C(=O)O"
  EXPERIMENTAL RESULT: 0.998
- COMPOUND: "COc1ccc(/C=C/c2cc(O)cc(O[C@@H]3O[C@H](CO)[C@@H](O)[C@H](O)[C@H]3O)c2)cc1"
  EXPERIMENTAL RESULT: 0.979
- COMPOUND: "CC(=O)OCC1=C(C(=O)O)N2C(=O)[C@@H](NC(=O)CSc3ccncc3)[C@H]2SC1"
  EXPERIMENTAL RESULT: 0.995
- COMPOUND: "CC(=O)NS(=O)(=O)c1ccc(N)cc1"
  EXPERIMENTAL RESULT: 0.989
- COMPOUND: "O=C(Nc1ccc([N+](=O)[O-])cc1Cl)c1cc(Cl)ccc1O"
  EXPERIMENTAL RESULT: 1.03

Q. Which measured normalized growth value corresponds to CC(=O)Oc1c(C)c(C)c2c(c1C)CCC(C)(CCCC(C)CCCC(C)CCCC(C)C)O2 (centres undefined) ?
A. 0.99

Q. Which measured normalized growth value corresponds to COP(=O)(NC(C)=O)SC (centres undefined) ?
A. 1.01

Q. Which measured normalized growth value corresponds to Cn1c(=O)c2c(ncn2CCO)n(C)c1=O ?
A. 0.956

Q. Which measured normalized growth value corresponds to CNC(C)(C)Cc1ccccc1 ?
A. 0.998

Q. Which measured normalized growth value corresponds to Cn1c(=O)[nH]c2nc[nH]c2c1=O ?
A. 1.02

Q. Which measured normalized growth value corresponds to C[N+]1(C)CCCC(OC(=O)C(O)(c2ccccc2)c2ccccc2)C1 (centres undefined) ?
A. 0.981

Q. Which measured normalized growth value corresponds to CN1CCC[C@H]1c1cccnc1 ?
A. 0.959

Q. Which measured normalized growth value corresponds to O=C(/C=C/c1ccc(O)cc1)c1ccc(O)cc1O ?
A. 0.93

Q. Which measured normalized growth value corresponds to COc1cc(Cc2cnc(N)nc2N)cc(OC)c1OC ?
A. 0.991

Q. Which measured normalized growth value corresponds to ClC1C(Cl)C(Cl)C(Cl)C(Cl)C1Cl (centres undefined) ?
A. 0.977

Q. Which measured normalized growth value corresponds to O=C1C=C(O)c2ccccc2C1=O ?
A. 0.918

Q. Which measured normalized growth value corresponds to CNC(=O)Oc1ccccc1OC(C)C ?
A. 0.991

Q. Which measured normalized growth value corresponds to O=C(c1ccccc1)c1ccc2n1CCC2C(=O)O (centres undefined) ?
A. 0.964

Q. Which measured normalized growth value corresponds to COC(=O)C[C@H]1C(C)(C)[C@@H](OC(C)=O)[C@@H]2CC3=C4CC(=O)O[C@@H](c5ccoc5)[C@]4(C)CCC3[C@@]1(C)C2=O (some centres undefined) ?
A. 0.987

Q. Which measured normalized growth value corresponds to C[C@H]1C(=O)CCC2[C@]3(C)CC[C@@]4(C)C5CC(C)(C)CC[C@]5(C)CC[C@]4(C)C3CC[C@@]21C (some centres undefined) ?
A. 0.967

Q. Which measured normalized growth value corresponds to Oc1cccc2cccnc12 ?
A. 0.0694

Q. Which measured normalized growth value corresponds to CCCCN(CC)c1c([N+](=O)[O-])cc(C(F)(F)F)cc1[N+](=O)[O-] ?
A. 1.03

Q. Which measured normalized growth value corresponds to Cn1c(=O)c2c(ncn2C)n(C)c1=O ?
A. 1.01

Q. Which measured normalized growth value corresponds to O=C(/C=C/c1ccccc1)c1c(O)cc(O)cc1O ?
A. 1.01
